Consider the following compounds and their measured growth inhibition readings.
Test: NCI Yeast Anticancer Drug Screen. Data for the mlh1 strain (AID 171);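 note: 0% = growth of vehicle-treated control cultures of the same strain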
Conditions: S. cerevisiae mlh1 strain growth inhibition; at 100.0 µM; stronger effect = higher value
This is part of a sample that, as a whole, favours compounds with a hit. Of some 79,000 tested, about 15% had one in any assay.
EXPERIMENTAL ENDPOINT: growth inhibition (%)

INSERT INTO assay_data (compound, assay_result) VALUES
  ('Cc1cc2cc3cc(C)c(N)cc3nc2cc1N', 95),
  ('Clc1ccc2c(c1)N(CCCN1CCCC13CCCCC3)c1ccccc1S2', 8),
  ('CCc1cc(O)c(Cl)c(C)c1Cl', 81),
  ('COc1ccc(/C=C2\NC(=S)N(/C=C3\C(=O)Oc4ccccc4C3=O)C2=O)cc1', 25),
  ('CC[N+]1(C)CCC(O)(c2ccc(OC)cc2)C(C(=O)c2ccc(OC)cc2)C1 (stereo unspecified)', -62),
  ('S=C1SCN(C2CCCCC2)CN1C1CCCCC1', 79),
  ('O=Cc1ccc2c(c1)C(=O)c1ccccc1C2=O', 82),
  ('NC(=S)NC(=S)Nc1ccccc1', 85),
  ('N#CC(=Nc1ccccc1F)Nc1ccccc1F', 5),
  ('CCCCN(CCCC)CCC(O)c1cc2c(Cl)cc(Cl)cc2c2cc(C(F)(F)F)ccc12 (stereo unspecified)', 96),
  ('CSc1nnc(SC)nn1', 99),
  ('CCCCCCCCCCCCNC(C)=O', 72),
  ('Nc1ccc2c(c1)C(=O)c1ccc(F)cc1-2', 22),
  ('CC(C)(C)C1=CC(=CC=C2C=CN(CCCCCCCCCCCO)C=C2)C=C(C(C)(C)C)C1=O', 98),
  ('COc1cc([C@@H]2c3cc4c(cc3[C@H](OC3OC5COC(C(C)C)OC5C(O)C3O)C3COC(=O)[C@@H]32)OCO4)cc(OC)c1O (stereo partly specified)', 22),
  ('CS(=O)(=O)OCCN(CCOS(C)(=O)=O)c1ccc(C=Nc2ccc(-c3csc(COc4ccccc4)n3)cc2)cc1', 92);
